The measured values listed here are drawn from patent US20210196796A1.

- target_or_test_system: T1, orthogonal hCD122 receptor (hoRb), hCD122 with H133D and Y134F (human, UniProt P14784 27-550); also: reference of the scale not given here
- T1 sequence: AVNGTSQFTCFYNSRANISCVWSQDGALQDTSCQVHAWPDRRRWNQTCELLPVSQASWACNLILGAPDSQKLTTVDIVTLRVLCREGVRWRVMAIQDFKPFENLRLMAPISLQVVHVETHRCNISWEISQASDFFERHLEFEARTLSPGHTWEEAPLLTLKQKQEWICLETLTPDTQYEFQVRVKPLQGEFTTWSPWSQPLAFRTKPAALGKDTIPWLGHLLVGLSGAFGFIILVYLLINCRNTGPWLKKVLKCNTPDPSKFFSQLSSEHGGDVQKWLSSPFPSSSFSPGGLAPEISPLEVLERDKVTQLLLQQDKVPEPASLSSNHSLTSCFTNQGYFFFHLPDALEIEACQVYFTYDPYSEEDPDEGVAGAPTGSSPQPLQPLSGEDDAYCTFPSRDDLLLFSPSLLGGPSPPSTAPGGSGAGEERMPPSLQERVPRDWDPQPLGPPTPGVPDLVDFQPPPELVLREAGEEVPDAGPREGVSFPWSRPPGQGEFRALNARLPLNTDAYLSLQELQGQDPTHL
- experiment_notes: cell-based or functional assay
value_type: Relative Proliferation Fold Change 3F8 1:50 (fold)
Quick note: give the figure in fold, leave out the unit.

Known results for binders:
binder	reported_result
SQVLYA, E116G (ligand) APTSSSTKKTQLQLSQLLVLLYAILNGINNYKNPKLTRMLTFKFYMPKKATELKHLQCLEEELKPLEEVLNLAQSKNFHLRPRDLISNINVIVLELKGSETTFMCEYADETATIVEFLNRWITFCQSIISTLT	2.73
SQVLKQ (ligand) APTSSSTKKTQLQLSQLLVLLKQILNGINNYKNPKLTRMLTFKFYMPKKATELKHLQCLEEELKPLEEVLNLAQSKNFHLRPRDLISNINVIVLELKGSETTFMCEYADETATIVEFLNRWITFCQSIISTLT	29.5
SQVLHA (ligand) APTSSSTKKTQLQLSQLLVLLHAILNGINNYKNPKLTRMLTFKFYMPKKATELKHLQCLEEELKPLEEVLNLAQSKNFHLRPRDLISNINVIVLELKGSETTFMCEYADETATIVEFLNRWITFCQSIISTLT	25.8

Ask | Note Relative Proliferation Fold Change 3F8 1:50 for the binder shown: ΔQ13, SQVLKA (ligand) APTSSSTKKTQLLSQLLVLLKAILNGINNYKNPKLTRMLTFKFYMPKKATELKHLQCLEEELKPLEEVLNLAQSKNFHLRPRDLISNINVIVLELKGSETTFMCEYADETATIVEFLNRWITFCQSIISTLT
Reply | 7.63
